Data origin: the supplement of paper PMC11451515

System: SEM cells
Experiment: cell viability relative to DMSO control; higher = less cytotoxic
Details: RPMI 5 mM glucose + 10% dialyzed FBS; 48 h; 0.00702 µM
property measured: cell viability (%)
Give the value, in units of %, as a plain number.

Worked cases, cell viability given:
INSERT INTO results (compound, property_measured, value_measured) VALUES
  ('O=C(NCCCNc1nc(Nc2cccc(NC(=O)N3CCCC3)c2)ncc1I)c1cccs1', 'cell viability', 87.4),
  ('C[C@H](NC(=O)Cc1cc(F)cc(F)c1)C(=O)N[C@@H]1C(=O)N(C)c2ccccc2-c2ccccc21', 'cell viability', 100),
  ('Cc1cc(-c2nnc3n2CCCCC3)c(C)n1-c1ccccc1', 'cell viability', 140),
  ('CCCCOc1ccc(CC(=O)NO)cc1', 'cell viability', 108),
  ('COC(=O)Nc1ccc(-c2nc(N3CCOCC3)c3cnn(C4CCN(Cc5cccnc5)CC4)c3n2)cc1', 'cell viability', 112),
  ('Nc1nc(Nc2ccc([S+](N)(=O)[O-])cc2)nn1C(=O)c1c(F)cccc1F', 'cell viability', 114),
  ('C=CC(=O)Nc1cccc(Oc2nc(Nc3ccc(N4CCN(C)CC4)cc3OC)ncc2Cl)c1', 'cell viability', 52.6),
  ('CC(C[N+](C)(C)C)OC(N)=O (centres undefined)', 'cell viability', 88.7),
  ('O=[S+]([O-])(/N=C/c1c(O)ccc2ccccc12)c1cccs1', 'cell viability', 109),
  ('COC1=CC(=CC=C1)C2=CC=C(NC(=O)/C3=C(/CCC3)C(O)=O)C(=C2)F', 'cell viability', 109);

State its cell viability for this compound: `CC(C)C(=O)Nc1ncc(-c2cc(C(F)F)nn2-c2c(Cl)cccc2Cl)s1`
140

State its cell viability for this compound: `O=C(Nc1ccc([N+](=O)[O-])cc1Cl)c1cc(Cl)ccc1O`
88.8

* * *

Test system: NOMO1
Test: cell viability relative to DMSO control; higher = less cytotoxic
Conditions: HPLM + 10% dialyzed FBS; 48 h; 15.4 µM
cell viability listing for selected compounds.
Give the value, in units of %, as a plain number.

Worked cases, cell viability given:
INSERT INTO assay_data (compound, value_measured) VALUES
  ('C[C@]12CC[C@@H]3c4ccc(O)cc4CC[C@H]3[C@@H]1CC[C@@H]2O', 56.3),
  ('O=C(O)c1ccc(-c2c[nH]c3ncc(-c4ccccc4)cc23)cc1C1CCCC1', 134),
  ('C[C@H]1[C@H](O)O[C@@H]2O[C@@]3(C)CC[C@H]4[C@H](C)CC[C@@H]1[C@@]24OO3', 9.81);

State its cell viability for this compound: OC(CCN1CCCCC1)(C2CC\3CC2\C=C3)C4=CC=CC=C4 (centres undefined)
117

State its cell viability for this compound: COc1nccc(-c2c(-c3ccc(F)cc3)ncn2C2CCC(O)CC2)n1 (centres undefined)
119

State its cell viability for this compound: `CO[C@@H]1[C@@H](OC(N)=O)[C@@H](O)[C@H](OC2=CC=C3\C(=C(NC(=O)C4=CC=C([O-])C(=C4)CC=C(C)C)/C(=O)OC3=C2C)O)OC1(C)C`
87

* * *

Test system: NOMO1
Assay: cell viability relative to DMSO control; higher = less cytotoxic
Conditions: HPLM + 10% dialyzed FBS; 48 h; 0.569 µM
property measured: cell viability (%)
Give the value, in units of %, as a plain number.

Worked cases, cell viability given:
INSERT INTO assay_data (compound, property_measured, unit_descriptor, value_measured) VALUES
  ('OC1=CC2=C(C(=O)\C=C(/O2)C3=CC=CC=C3)C(=C1O)O', 'cell viability', '%', 108),
  ('CCNC(=O)Nc1ccc(-c2nc3c(c(N4CCOC[C@@H]4C)n2)CCN(C2COC2)C3)cc1', 'cell viability', '%', 88.6),
  ('CC1(C)Cc2c(sc(NC(=S)NC(=O)c3ccccc3)c2C(=O)O)CO1', 'cell viability', '%', 115),
  ('C=CCc1cc(OC)c(O)c(C(=O)NCCO)c1', 'cell viability', '%', 107),
  ('Cc1cc(SCc2sc(-c3ccc(C(F)(F)F)cc3)nc2C)ccc1OCC(=O)O', 'cell viability', '%', 104);

State its cell viability for this compound: `O=C(O)[C@@H](c1ccc(OCc2ccc3ccccc3n2)cc1)C1CCCC1`
115

State its cell viability for this compound: `CCCC(CCC)C(=O)[O-]`
109

State its cell viability for this compound: `Cn1cnc(-c2cc3nccc(Oc4ccc(NC(=S)NC(=O)Cc5ccccc5)cc4F)c3s2)c1`
91.3

State its cell viability for this compound: `COC/1=C/[C@@H]2[C@@H]3CC4=C(C(=C(OC)C=C4)O)[C@]2(CCN3C)CC1=O`
147

State its cell viability for this compound: `O=[S+]([O-])(CCSSCC[S+](=O)([O-])[O][Na])[O][Na]`
133

State its cell viability for this compound: `C[N+](C)(C)CC(=O)O.[Cl-]`
95.6

State its cell viability for this compound: `O=C([O-])[C@H](CC(=O)N1C[C@H]2CCCC[C@H]2C1)Cc1ccccc1`
128

State its cell viability for this compound: O=C(O)CSCC(=O)NC1CCSC1=O (centres undefined)
107

State its cell viability for this compound: `CCOC(CN1C(=O)[C@](CC(=O)Nc2ccc(C)cc2)(NC(=O)Nc2ccc(C)cc2)c2ccccc21)OCC`
126

State its cell viability for this compound: `CC(C)C(=O)Nc1ncc(-c2cc(C(F)F)nn2-c2c(Cl)cccc2Cl)s1`
148

* * *

Test system: SEM cells
Experiment: cell viability relative to DMSO control; higher = less cytotoxic
Conditions: RPMI 5 mM glucose + 10% FBS; 48 h; 46.1 µM
property measured: cell viability (%)
Give the value, in units of %, as a plain number.

Worked cases, cell viability given:
INSERT INTO measurements (molecule, property_measured, unit_descriptor, value_measured) VALUES
  ('CN1\N=N/C2=C(N=C[N]2C1=O)C(N)=O', 'cell viability', '%', 24.1),
  ('NC/1=N/C(=O)N(C[C@@H](CO)OC[P](O)(O)=O)/C=C1', 'cell viability', '%', 69.7),
  ('CCCCOc1ccc(CC(=O)NO)cc1', 'cell viability', '%', 46.5),
  ('NC(=O)c1ccc(-c2nc(-c3ccc4c(c3)OCO4)c(-c3ccccn3)[nH]2)cc1', 'cell viability', '%', 66.9),
  ('CNC(=O)c1cc(Oc2ccc(NC(=O)Nc3ccc(Cl)c(C(F)(F)F)c3)cc2)ccn1', 'cell viability', '%', 5.7),
  ('NCCCC(O)(P(=O)(O)O)P(=O)(O)O.O.O.O.[Na+]', 'cell viability', '%', 6.56),
  ('C=C[C@H]1CN2CCC1C[C@@H]2[C@@H](O)c1ccnc2ccccc12 (some centres undefined)', 'cell viability', '%', 51.1),
  ('CN1/C=C(\N=C(NC2=CC=C(C=C2)C(=O)N3CCOCC3)/C1=O)/C4=C(C)C(=CC=C4)NC(=O)C5=CC=C(C=C5)C(C)(C)C', 'cell viability', '%', 66),
  ('O=C(NCCO[N+](=O)[O-])c1cccnc1', 'cell viability', '%', 108),
  ('O=C(O)c1ccc(-c2c[nH]c3ncc(-c4ccccc4)cc23)cc1C1CCCC1', 'cell viability', '%', 43.2);

Give measured cell viability for `O=C(C[C@@H]1C/C=C\CCC(=O)O[C@H](c2ccccc2)CNC1=O)NCc1ccc(Cl)cc1` (SEM cells).
94

Give measured cell viability for `C=CCc1cc(OC)c(O)c(C(=O)NCCO)c1` (SEM cells).
68.6

Give measured cell viability for COc1ccc(CC2c3cc(OC)c(OC)cc3CC[N+]2(C)CCC(=O)OCCCCCOC(=O)CC[N+]2(C)CCc3cc(OC)c(OC)cc3C2Cc2ccc(OC)c(OC)c2)cc1OC (centres undefined) (SEM cells).
85.1

Give measured cell viability for OCCNC1CCCc2c1[nH]c1ccc(-c3ccccc3)cc21 (centres undefined) (SEM cells).
5.82

* * *

Test system: NOMO1
Assay: cell viability relative to DMSO control; higher = less cytotoxic
Conditions: HPLM + 10% dialyzed FBS; 48 h; 1.71 µM
property measured: cell viability (%)
Give the value, in units of %, as a plain number.

Worked cases, cell viability given:
INSERT INTO results (compound, value_measured) VALUES
  ('C/C(=C\c1csc(C)n1)[C@@H]1C[C@@H]2O[C@@H]2CCC[C@H](C)[C@H](O)[C@@H](C)C(=O)C(C)(C)[C@@H](O)CC(=O)O1', 30.5),
  ('CN(C)CC[C@H](CSc1ccccc1)Nc1ccc([S+](=O)([O-])NC(=O)c2ccc(N3CCN(Cc4ccccc4-c4ccc(Cl)cc4)CC3)cc2)cc1[N+](=O)[O-]', 102),
  ('CCC(=O)OC1CCC2C3CCC/4=C/C(=O)CC[C@@]4(C)C3CC[C@]12C (some centres undefined)', 136),
  ('NC(=O)c1ccc(-c2nc(-c3ccc4c(c3)OCO4)c(-c3ccccn3)[nH]2)cc1', 123),
  ('CN(CCOc1ccc(NS(C)(=O)=O)cc1)CCc1ccc(NS(C)(=O)=O)cc1', 133);

State its cell viability for this compound: `CC1(C)Cc2c(sc(NC(=S)NC(=O)c3ccccc3)c2C(=O)O)CO1`
112

State its cell viability for this compound: `CN1CCN(Cc2ccc(NC(=O)Nc3ccc(Oc4cc(NC(=O)C5CC5)ncn4)cc3)cc2C(F)(F)F)CC1`
4.6

State its cell viability for this compound: `O=C(O)c1ccc(-c2c[nH]c3ncc(-c4ccccc4)cc23)cc1C1CCCC1`
138

State its cell viability for this compound: `CCCC(CCC)C(=O)[O-]`
110
